assay: drug combination growth inhibition, ovarian cancer – cell-based, oncology-focused library, rucaparib conditional, profiling panel (AID 1508598); details: patient-derived ovarian cancer cells, CellTiter-Glo viability, 144 h; at 0.0781 µM; OCI-C5x cells; without rucaparib; hits give low values
Activity calls are given as the source filed them.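 Rule for the calls: active = normalized viability below 100% at a tested concentration; inactive = the rest.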
Kindly state viability for each of the entries shown.

Lookup: Assign viability to the following record: COc1cc2nccc(Oc3ccc(NC(=O)Nc4cc(C)on4)c(Cl)c3)c2cc1OC
Found: 88.6% (active)

Lookup: Identify measured viability corresponding to CC1(C)CNc2cc(NC(=O)c3cccnc3NCc3ccncc3)ccc21
Found: 141% (inactive)

Lookup: Respond only with viability recorded for CCCS(=O)(=O)Nc1ccc(F)c(C(=O)c2c[nH]c3ncc(-c4ccc(Cl)cc4)cc23)c1F
Found: 107% (inactive)

Lookup: Recall and state the measured viability for O=C(O)c1ccc(O)c2ncccc12 .
Found: 120% (inactive)

Lookup: Return viability (reported value) for this compound: Cn1cc(CNCC2CCN(c3ncc(C(=O)NO)cn3)CC2)c2ccccc21
Found: 7.55% (active)

Lookup: Note viability for the compound shown: CC(=O)Nc1nc(C)c(-c2ccc(Cl)c(S(=O)(=O)NCCO)c2)s1
Found: 125% (inactive)

Lookup: In one line, give reported viability of the entry CNC(=O)c1cc(Oc2ccc(NC(=O)Nc3cc(C(C)(C)C)nn3-c3ccc4ncccc4c3)c(F)c2)ccn1 .
Found: 113% (inactive)

Lookup: Quote viability reported for CCN(CCO)CCCOc1ccc2c(Nc3cc(CC(=O)Nc4cccc(F)c4)[nH]n3)ncnc2c1 please.
Found: 77.3% (active)

Lookup: Quote viability reported for CC(C)[C@H](C(=O)Nc1ccc(C(=O)NO)cc1)c1ccccc1 please.
Found: 145% (inactive)

Lookup: Annotate the compound Cc1cnc(-c2ccccc2C(C)C)nc1NCc1ccc(-n2ccnn2)cc1 with its measured viability.
Found: 118% (inactive)

Lookup: Name the recorded viability of the compound listed here: Nc1cccc2c1C(=O)N(C1CCC(=O)NC1=O)C2=O (stereo unspecified)
Found: 112% (inactive)

Lookup: Tell me measured viability for COc1c(C)cnc(Cn2cnc3c(Cl)nc(N)nc32)c1C please.
Found: 137% (inactive)

Lookup: Give recorded viability. CC(C)CC(=O)Nc1n[nH]c2c1CN(C(=O)C1CCN(C)CC1)C2(C)C
Found: 134% (inactive)

Lookup: Tell us which viability value is on record for C=CC(=O)Nc1cc(Nc2nccc(-c3cn(C)c4ccccc34)n2)c(OC)cc1N(C)CCN(C)C
Found: 132% (inactive)

Lookup: State, in one line, measured viability of CCCCCCCCc1ccc(CCC(N)(CO)CO)cc1
Found: 106% (inactive)

Lookup: Specify viability for Cc1cccc(Nc2nc(-c3ccncc3)cs2)c1 and stop.
Found: 108% (inactive)

Lookup: Assign viability to the following record: COc1ncc(-c2ccc3nccc(-c4ccnnc4)c3c2)cc1NS(=O)(=O)c1ccc(F)cc1F
Found: 30.6% (active)

Lookup: Query viability for Cc1cnc(NC(=O)Nc2cc(Br)c(C)cc2OC[C@@H]2CNCCO2)cn1
Found: 117% (inactive)

Lookup: For the compound C=CCn1c(=O)c2cnc(Nc3ccc(N4CCN(C)CC4)cc3)nc2n1-c1cccc(C(C)(C)O)n1 , give its reported viability.
Found: 96.7% (active)

Lookup: Give a short answer stating reported viability for CC1COC2(CCN(c3nc(=O)c4cc(C(F)(F)F)cc([N+](=O)[O-])c4s3)CC2)O1 (stereo unspecified) .
Found: 116% (inactive)

Lookup: Tell us which viability value is on record for Cc1cn(-c2cc(NC(=O)c3ccc(C)c(Nc4nccc(-c5cccnc5)n4)c3)cc(C(F)(F)F)c2)cn1
Found: 116% (inactive)

###

assay: growth inhibition of DIPG cells – cell-based, MIPE5.0 library, qHTS (AID 1347068); settings: SU-DIPG-XXV viability;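 for IC50: cells exposed to compound for 48 hours before viability readout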
Records with an inconclusive call do not appear. Activity calls are given as the source filed them. No cut-off is given here; in the data, nearly all actives have IC50 up to about 30 µM.
Field 'call' accepts y = active, n = inactive

Lookup: What is the recorded call for this molecule in the test? Cc1cc(Nc2ncc3c(n2)N(C)C(=O)N(c2cc(NC(=O)c4cccc(C(F)(F)F)c4)ccc2C)C3)n(C)n1
Found: y

Lookup: Returns: the outcome recorded for Cc1c(F)cc(C(=O)NC2CC2)cc1-c1c(F)cn2c(C(C)(C)C)nnc2c1F in this assay.
Found: n

Lookup: How was CCCCOC(=O)NS(=O)(=O)c1sc(CC(C)C)cc1-c1ccc(Cn2ccnc2)cc1 classified in this test?
Found: n

Lookup: Test call, this molecule: O=C(Nc1cccc(Cl)c1)Nc1ncc(CCNc2ncnc3ccsc23)s1
Found: y

Lookup: State the result this test recorded for C[C@H]1CNC(=O)c2cnn3ccc(nc23)N[C@H](C)c2cc(F)ccc2O1 .
Found: y

Lookup: Record request — test call for N[C@@]1(C(=O)O)CS(=O)(=O)[C@H]2[C@H](C(=O)O)[C@H]21
Found: n

Lookup: Per the assay record, what outcome was assigned to O=C(Nc1cccnc1)N1CCC(Cc2cccc(Oc3ccc(C(F)(F)F)cn3)c2)CC1 ?
Found: n

Lookup: Which outcome was entered for the molecule Nc1ccc(F)cc1NC(=O)c1ccc(CNC(=O)/C=C/c2cccnc2)cc1 in this test?
Found: y

Lookup: What is the recorded call for this molecule in the test? CCNCCc1ccc(CN(CC)c2cc(OC)ccc2[C@@H]2CCc3cc(O)ccc3C2)cc1
Found: y

###

test: viability loss with induced miR-34 in A549 – imaging, A549 dox-inducible miR-34, nuclei and caspase counts, primary screen (AID 1347080); details: A549 miR-34 inducible, Hoechst nuclei count, 48 h; hits give low values; cell number ratio, induced over uninduced
assayMetric: fold change
No unit in the answer, please; the number alone is enough.

Lookup: Specify fold change for CN(Cc1ccccc1)C(=O)[C@H](Cc1ccc2ccccc2c1)NC(=O)[C@@H]1C[C@@H](O)CN1C(=O)c1cn(C)c2ccccc12 and stop.
Found: 0.957

Lookup: Given the compound CC1(C)C[C@@H]1C(=O)N/C(=C\CCCCSC[C@@H](N)C(=O)O)C(=O)O , write its reported fold change.
Found: 0.976

Lookup: For the compound N#Cc1cc2[nH]c(=O)c(=O)[nH]c2cc1[N+](=O)[O-] , give its reported fold change.
Found: 0.891

Lookup: Indicate the recorded fold change value for this compound: CCCCC(C)(C)[C@H](O)/C=C/[C@@H]1[C@@H](C/C=C\CCCC(=O)O)[C@@H](O)C[C@H]1O
Found: 0.98

Lookup: Look up and state reported fold change for C/C(=N\NC(=O)[C@@H]1C(=O)NC[C@H]1c1ccccc1)c1cccc(Br)c1
Found: 0.887

Lookup: Give recorded fold change. Cc1c(NC(=O)c2ccc(C(C)(C)C)cc2)cccc1-c1cn(C)c(=O)c(Nc2ccc(C(=O)N3CCOCC3)cc2)n1
Found: 1.11

Lookup: Give fold change for the following compound: CC1CCN=C(N)C1 (centres undefined)
Found: 0.966

Lookup: Using known records, supply fold change for Cc1cnc(-c2ccccc2C(C)C)nc1NCc1ccc(-n2ccnn2)cc1
Found: 0.905

Lookup: Supply fold change value. Item: C=CC(=O)Nc1cccc(Nc2nc(Nc3ccc(NC4CN(CCF)C4)cc3OC)ncc2C(F)(F)F)c1
Found: 0.964

###

assay: drug combination growth inhibition, ovarian cancer – cell-based, oncology-focused library, rucaparib conditional, profiling panel (AID 1508598); conditions: patient-derived ovarian cancer cells, CellTiter-Glo viability, 144 h; at 0.00488 µM; OCI-C5x cells; with rucaparib 10 µM; hits give low values; 100% = cells with rucaparib alone
assayMetric: viability (%)
Quick reminder: number only, in %, skip the unit.

Lookup: Give viability for CNc1nc(-c2ccc3c(N)n[nH]c3c2)cc(N2C[C@@H](C(=O)NC3CCCCC3)CC[C@H]2C)n1
Found: 116

Lookup: Item Cc1nc(N)sc1-c1ccnc(Nc2ccc(N3CCOCC3)cc2)n1 : provide viability
Found: 104

Lookup: Please report viability for the following compound: CC(=O)c1c(C)c2cnc(Nc3ccc(N4CCNCC4)cn3)nc2n(C2CCCC2)c1=O
Found: 119

Lookup: Determine its reported viability: Cc1cn(-c2cc(NC(=O)c3ccc(C)c(Nc4nccc(-c5cccnc5)n4)c3)cc(C(F)(F)F)c2)cn1
Found: 109

Lookup: Supply viability value. Item: CN1CCC(CNc2ccc3ncc(-c4cccc(OC(F)(F)F)c4)n3n2)CC1
Found: 106

Lookup: Indicate its recorded viability; the compound in question is CS(=O)(=O)c1ccc(C(=O)Nc2ccc(Cl)c(-c3ccccn3)c2)c(Cl)c1
Found: 125

Lookup: Output measured viability for this item: N#CCNC(=O)c1ccc(-c2ccnc(Nc3ccc(N4CCOCC4)cc3)n2)cc1
Found: 110

Lookup: Give reported viability value for CN1CCN(c2nc(C3=C(c4c[nH]c5ccccc45)C(=O)NC3=O)c3ccccc3n2)CC1
Found: 112

Lookup: Output measured viability for this item: Cc1ccc2c(=O)c3cccc(CC(=O)O)c3oc2c1C
Found: 108
